biological target: AP-2 complex subunit beta (Homo sapiens) (UniProt P63010); test: inhibitors of arrestin peptide binding to AP2, pilot screen, biochemical, validation set, GST-AP2 beads, flow cytometry (AID 504541); settings: FITC arrestin peptide, at 10 µM, active compounds read high, AP2 beta2 appendage fragment, R879A mutant;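 also: AP2 carries R879A mutation and is captured from E. coli lysate; bead-bound FITC arrestin peptide fluorescence measuring arrestin peptide binding to AP2; 0% = DMSO wells and 100% = excess unlabeled arrestin peptide control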
Sequence (P63010 whole entry, looked up, the tested form may be a part, one chain of several): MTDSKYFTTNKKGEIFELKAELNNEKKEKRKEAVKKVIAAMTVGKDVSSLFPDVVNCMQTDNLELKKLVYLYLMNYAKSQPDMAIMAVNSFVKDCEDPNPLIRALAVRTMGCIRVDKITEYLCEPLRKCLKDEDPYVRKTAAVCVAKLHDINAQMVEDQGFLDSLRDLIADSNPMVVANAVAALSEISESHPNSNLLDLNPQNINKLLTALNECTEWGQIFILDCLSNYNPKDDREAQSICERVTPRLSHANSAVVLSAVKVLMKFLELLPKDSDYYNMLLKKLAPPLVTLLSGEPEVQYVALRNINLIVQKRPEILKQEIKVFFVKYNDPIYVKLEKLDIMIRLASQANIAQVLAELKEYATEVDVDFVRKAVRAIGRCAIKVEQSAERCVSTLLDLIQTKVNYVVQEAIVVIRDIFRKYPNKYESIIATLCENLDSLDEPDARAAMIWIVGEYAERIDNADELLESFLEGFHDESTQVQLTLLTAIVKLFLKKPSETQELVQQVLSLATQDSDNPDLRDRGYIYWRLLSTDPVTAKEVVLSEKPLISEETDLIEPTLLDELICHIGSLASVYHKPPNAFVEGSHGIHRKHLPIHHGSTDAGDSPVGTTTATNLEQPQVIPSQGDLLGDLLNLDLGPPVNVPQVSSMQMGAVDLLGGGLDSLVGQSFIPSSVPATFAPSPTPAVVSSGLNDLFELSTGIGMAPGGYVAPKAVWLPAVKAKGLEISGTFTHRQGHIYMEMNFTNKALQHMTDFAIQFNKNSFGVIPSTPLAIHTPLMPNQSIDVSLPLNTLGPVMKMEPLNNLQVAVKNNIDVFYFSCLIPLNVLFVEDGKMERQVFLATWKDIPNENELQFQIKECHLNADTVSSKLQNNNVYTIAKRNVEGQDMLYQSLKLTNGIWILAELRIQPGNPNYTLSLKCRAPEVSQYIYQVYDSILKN
Experimental Endpoint: inhibition (%)
Quick reminder: number only, in %, skip the unit.

{"columns": ["Molecule", "U", "inhibition"],
 "data": [
  ["COc1ccc(C2C(=O)c3ccccc3C2=O)cc1", "%", -15.3],
  ["CC[C@]1(O)C[C@@H]2CN(CCc3c([nH]c4ccccc34)[C@@](C(=O)OC)(c3cc4c(cc3OC)N(C)[C@H]3[C@@](O)(C(=O)OC)[C@H](OC(C)=O)[C@]5(CC)C=CCN6CC[C@]43[C@@H]65)C2)C1", "%", -7.9]
]}

Endpoint output: inhibition of OCCN1CCN(CCCN2c3ccccc3Sc3ccc(Cl)cc32)CC1 . Value?
29.9

Endpoint output: inhibition of COc1ccc(OC)c(-n2c(Cn3c(-c4ccccn4)nc4ccccc43)n[nH]c2=S)c1 . Value?
6.75

Endpoint output: inhibition of COc1ccc(C(=O)C2CCCCC2=O)cc1 (stereo not given) . Value?
2.47

Endpoint output: inhibition of COc1ccc(-c2c(NC(=O)c3ccco3)n(C)c3ccccc3c2=O)cc1 . Value?
-5.24

Endpoint output: inhibition of CCN(CC)Cc1c[nH]c2c(C(=O)OC)cccc12 . Value?
12.3

Endpoint output: inhibition of COCc1cc(=O)[nH]c(Nc2nc3ccccc3o2)n1 . Value?
-0.3

Endpoint output: inhibition of O=C1CC(c2ccc(F)cc2)Cc2nc(NCC3CCCO3)ncc21 (stereo not given) . Value?
-9.45

Endpoint output: inhibition of Cc1oc2cc(O)ccc2c(=O)c1Oc1ccccc1Br . Value?
4.89

* * *

assay: AGP1-GFP expression modulators, hit retest, confirmation, cell-based, flow cytometry, S. cerevisiae, cherry picks (AID 2273);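 also: median GFP channel fluorescence over the whole cell population gate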; conditions: S. cerevisiae AGP1-GFP strain, 3 h, at 10 µM
Experimental Endpoint: GFP response, % of DMSO (%)
Quick reminder: number only, in %, skip the unit.

{"columns": ["Compound", "GFP response, % of DMSO / %"],
 "data": [
  ["CCOC(=O)CNc1c(-c2ccc(O)cc2)nc2ccccn12", 104]
]}

Endpoint output: GFP response, % of DMSO of Cc1c(C(=O)NCCSCc2cccc(C(F)(F)F)c2)cnn1-c1ccc(F)cc1 . Value?
99.1

Endpoint output: GFP response, % of DMSO of O=C(O)c1ccccc1SC1CC(=O)N(c2ccc3c(c2)OCO3)C1=O (stereo unspecified) . Value?
102

Endpoint output: GFP response, % of DMSO of Cc1c(CC(C)C)nc(N)c(C#N)c1-c1ccccc1 . Value?
98.7

Endpoint output: GFP response, % of DMSO of COc1ccc(-c2nc(N)n(C(C)=O)n2)cc1 . Value?
97.4

Endpoint output: GFP response, % of DMSO of Cc1ccccc1C(=O)Nc1cccc(C#N)c1 . Value?
99.8

Endpoint output: GFP response, % of DMSO of CCOC(=O)Cn1cc(/C=C/[N+](=O)[O-])c2ccccc21 . Value?
95

Endpoint output: GFP response, % of DMSO of O=C1C(Cl)=C(Nc2ccccc2O)C(=O)N1CCc1ccccc1 . Value?
104

Endpoint output: GFP response, % of DMSO of CCOC(=O)C1CCCN(C(=O)c2ccc(-c3ccc([N+](=O)[O-])cc3)o2)C1 (stereo unspecified) . Value?
99.3

Endpoint output: GFP response, % of DMSO of O=C(c1c(F)cccc1F)N1CCN(c2ccccc2F)CC1 . Value?
92.1

Endpoint output: GFP response, % of DMSO of Cc1cccc(/C(N)=N/OC(=O)C23CC4CC(CC(C4)C2)C3)c1 . Value?
85

* * *

As shown below, each of these molecules has a reported inhibition value.
target: Integrin beta-1 (Homo sapiens) + Integrin alpha-4 (Homo sapiens) (UniProt P13612+P05556); assay: inhibition of HUTS-21 binding to VLA-4, pilot screen, VLA-4 allosteric modulator project, U937 cells, HUTS-21 mAb, flow cytometry, validation set (AID 2674); settings: HUTS-21 LIBS mAb binding, at 6.7 µM, active compounds read high, binding induced by LDV ligand;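 also: antibody binding induced by the VLA-4 ligand LDV present at three times its Kd; 0% = LDV ligand with antibody and no compound and 100% = antibody without LDV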
Sequence (P05556 whole entry, looked up): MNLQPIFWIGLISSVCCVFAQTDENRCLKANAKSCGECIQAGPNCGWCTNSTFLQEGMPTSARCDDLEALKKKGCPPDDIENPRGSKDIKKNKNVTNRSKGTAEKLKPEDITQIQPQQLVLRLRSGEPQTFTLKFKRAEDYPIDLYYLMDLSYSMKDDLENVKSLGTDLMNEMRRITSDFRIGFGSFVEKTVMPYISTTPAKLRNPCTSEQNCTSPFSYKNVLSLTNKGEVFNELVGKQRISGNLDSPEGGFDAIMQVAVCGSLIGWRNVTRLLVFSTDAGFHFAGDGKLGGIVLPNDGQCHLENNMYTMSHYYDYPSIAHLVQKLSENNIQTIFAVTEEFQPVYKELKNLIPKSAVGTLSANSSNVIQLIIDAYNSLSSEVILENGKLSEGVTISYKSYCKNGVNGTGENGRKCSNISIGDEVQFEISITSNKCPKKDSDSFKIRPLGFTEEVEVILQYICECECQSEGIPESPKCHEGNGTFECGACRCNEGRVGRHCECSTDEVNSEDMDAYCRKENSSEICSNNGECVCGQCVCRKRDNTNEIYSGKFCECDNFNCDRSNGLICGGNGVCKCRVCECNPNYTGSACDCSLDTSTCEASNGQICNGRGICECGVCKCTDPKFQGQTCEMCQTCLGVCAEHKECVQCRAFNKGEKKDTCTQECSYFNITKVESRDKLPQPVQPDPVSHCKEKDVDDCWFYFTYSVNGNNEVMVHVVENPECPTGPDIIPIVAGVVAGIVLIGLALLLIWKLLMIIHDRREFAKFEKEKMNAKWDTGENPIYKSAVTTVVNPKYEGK
Sequence (P13612 whole entry, looked up): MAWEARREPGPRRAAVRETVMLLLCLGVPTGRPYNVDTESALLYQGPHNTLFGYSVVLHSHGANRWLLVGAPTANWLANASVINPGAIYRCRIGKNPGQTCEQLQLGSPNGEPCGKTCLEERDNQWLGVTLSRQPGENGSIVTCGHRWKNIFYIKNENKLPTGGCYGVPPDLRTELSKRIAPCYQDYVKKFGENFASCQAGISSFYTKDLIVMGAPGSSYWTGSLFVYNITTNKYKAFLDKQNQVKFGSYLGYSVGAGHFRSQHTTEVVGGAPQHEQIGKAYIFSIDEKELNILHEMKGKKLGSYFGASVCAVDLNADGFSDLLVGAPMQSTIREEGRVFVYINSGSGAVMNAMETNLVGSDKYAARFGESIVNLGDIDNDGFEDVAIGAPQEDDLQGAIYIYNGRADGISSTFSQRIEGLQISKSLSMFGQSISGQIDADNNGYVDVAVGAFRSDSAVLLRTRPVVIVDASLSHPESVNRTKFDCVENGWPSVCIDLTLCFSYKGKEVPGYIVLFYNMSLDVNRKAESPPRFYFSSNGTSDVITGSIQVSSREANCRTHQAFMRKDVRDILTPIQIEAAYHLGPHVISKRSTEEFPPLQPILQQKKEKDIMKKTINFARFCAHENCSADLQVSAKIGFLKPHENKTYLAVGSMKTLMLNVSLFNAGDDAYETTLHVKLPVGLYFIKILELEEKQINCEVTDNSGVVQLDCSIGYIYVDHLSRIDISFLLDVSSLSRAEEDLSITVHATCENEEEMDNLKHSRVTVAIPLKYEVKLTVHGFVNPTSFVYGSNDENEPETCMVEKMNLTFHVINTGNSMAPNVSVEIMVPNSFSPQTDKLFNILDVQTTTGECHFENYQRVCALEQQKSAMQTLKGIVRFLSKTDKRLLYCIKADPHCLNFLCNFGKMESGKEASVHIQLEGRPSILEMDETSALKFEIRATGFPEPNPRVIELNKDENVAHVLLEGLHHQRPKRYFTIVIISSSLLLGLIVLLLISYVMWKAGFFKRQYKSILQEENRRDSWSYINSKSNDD
Quick reminder: number only, in %, skip the unit.

Please review the entries below; each comes with its answer.
{"columns": ["Molecule", "inhibition, %"],
 "data": [
  ["COc1ccc(CCn2c(C)cc3c(c2=O)C(c2ccncc2)C(C#N)=C(N)O3)cc1OC (stereo unspecified)", -1.79],
  ["CN(C)CCC(c1ccc(Br)cc1)c1ccccn1 (stereo unspecified)", 36.1]
]}

Endpoint output: inhibition of CNCCCN1c2ccccc2CCc2ccccc21 . Value?
16.2

Endpoint output: inhibition of Nc1ccc2[nH]ncc2c1 . Value?
-8.62

Endpoint output: inhibition of COc1ccc(-c2cc3cc(OC)c(OC)cc3c(C)n2)cc1 . Value?
5.36

Endpoint output: inhibition of c1cc2c(cc1C1CCCCC1)c1c3n2CCN=C3CCC1 . Value?
-9.57

* * *

assay: modulators of CIT2-GFP expression in yeast, primary screen, S. cerevisiae, GFP fusion, multiplex flow cytometry (AID 1870); settings: 3 h, at 10 µM, active compounds read high;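 also: barcoded CIT2-GFP strain pooled with four other GFP strains with rapamycin as positive control; median GFP fluorescence per well over plate mean of DMSO wells so 100% = DMSO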
Experimental Endpoint: percent response of DMSO control (%)
Quick reminder: number only, in %, skip the unit.

{"columns": ["Molecule", "U", "percent response of DMSO control"],
 "data": [
  ["O=C(O)c1cccnc1", "%", 96.9],
  ["CCN1CCN(C(=O)N[C@@H](C(=O)N[C@@H]2C(=O)N3[C@@H]2SC(C)(C)[C@@H]3C(=O)O)c2ccccc2)C(=O)C1=O", "%", 103],
  ["CC(=O)NCCCCCCNC(C)=O", "%", 110],
  ["CCCNC(=O)NS(=O)(=O)c1ccc(Cl)cc1", "%", 97.1],
  ["COc1ccc2c(c1)C(=O)CC(c1ccccc1F)O2 (centres undefined)", "%", 93.9]
]}

Endpoint output: percent response of DMSO control of O=C(c1ccc(O)cc1)c1ccc(O)cc1O . Value?
104

Endpoint output: percent response of DMSO control of Cc1ccc2c(c1)C(O)(c1c(C)[nH]c3ccccc13)C(=O)N2 (centres undefined) . Value?
106

Endpoint output: percent response of DMSO control of OCCN(CCO)c1ccc2ccccc2c1 . Value?
99.6

Endpoint output: percent response of DMSO control of C[C@]12CC[C@H]3C(=CCc4cc(O)ccc43)[C@@H]1CCC2=O . Value?
90

Endpoint output: percent response of DMSO control of Cc1ccc2[nH]c3c(c2c1)CN(C(=O)CN1CCSCC1)CC3 . Value?
101

Endpoint output: percent response of DMSO control of CC(C)NCC(O)COc1ccc(CCOCC2CC2)cc1 (centres undefined) . Value?
109

Endpoint output: percent response of DMSO control of COc1ccc(C2N3CC4(C)CN2CC(C)(C3)C4)cc1OC (centres undefined) . Value?
107

Endpoint output: percent response of DMSO control of C[C@]12C=CC(=O)C=C1CCC1C3CC[C@](O)(C(=O)CO)[C@@]3(C)CC3OC312 (some centres undefined) . Value?
95.8

Endpoint output: percent response of DMSO control of C[C@]12CC[C@@H]3c4cc(O)c(O)cc4CC[C@H]3[C@@H]1CC[C@@H]2O . Value?
95.4

Endpoint output: percent response of DMSO control of CN1CCCC(OC(=O)c2ccc3c(c2)OCCO3)C1 (centres undefined) . Value?
108

Endpoint output: percent response of DMSO control of O=C(CCCN1CC=C(n2c(=O)[nH]c3ccccc32)CC1)c1ccc(F)cc1 . Value?
106

Endpoint output: percent response of DMSO control of O=C(O)CC(O)C(=O)O (centres undefined) . Value?
103

Endpoint output: percent response of DMSO control of CC1=CC(C)(C)N2C(=O)C3(NCCc4c3[nH]c3ccccc43)c3cc(C)cc1c32 (centres undefined) . Value?
99.8

Endpoint output: percent response of DMSO control of Cc1cc(-c2nn(-c3ccccc3F)cc2CN2CCC(O)CC2)c(C)s1 . Value?
104

Endpoint output: percent response of DMSO control of O=P(O)(O)CP(=O)(O)O . Value?
90.5

Endpoint output: percent response of DMSO control of COc1ccc2[nH]cc(C(=O)CCl)c2c1 . Value?
102

Endpoint output: percent response of DMSO control of COc1ccc2c(c1)CC[C@@H]1[C@@H]2CC[C@]2(C)C(=O)CC[C@@H]12 . Value?
98.6

Endpoint output: percent response of DMSO control of C#C[C@]1(O)CC[C@H]2[C@@H]3CCC4=C(CCC(=O)C4)[C@H]3CC[C@@]21C . Value?
94.9

Endpoint output: percent response of DMSO control of COc1ccc(OC)c(-c2oc3ccccc3c(=O)c2O)c1 . Value?
96.9
